Test: Spectroelectrochemical midpoint potential of the NO complex
Format: physicochemical, Rhodnius prolixus
Conditions: NO bound, pH 6.5, 27 °C
OBSERVABLE: Em,NO

MOLECULE	OBSERVABLE	ENDPOINT VALUE
NP1: recombinant wild-type nitrophorin 1 of Rhodnius prolixus, NO-carrying heme protein, with M0 present (protein, UniProt Q26239 24-207, looked up, N-terminal Met0 retained) Nitrophorin-1: KCTKNALAQTGFNKDKYFNGDVWYVTDYLDLEPDDVPKRYCAALAAGTASGKLKEALYHYDPKTQDTFYDVSELQEESPGKYTANFKKVEKNGNVKVDVTSGNYYTFTVMYADDSSALIHTCLHKGNKDLGDLYAVLNRNKDTNAGDKVKGAVTAASLKFSDFISTKDNKCEYDNVSLKSLLTK	Em,NO	118±3 mV vs. SHE
NP4-E55Q: site-directed mutant of NP4, buried E55 replaced by Gln (protein, UniProt Q94734 22-205, looked up, variant E55Q) Nitrophorin-4: ACTKNAIAQTGFNKDKYFNGDVWYVTDYLDLEPDDVPKRYCAALAAGTASGKLKQALYHYDPKTQDTFYDVSELQVESLGKYTANFKKVDKNGNVKVAVTAGNYYTFTVMYADDSSALIHTCLHKGNKDLGDLYAVLNRNKDAAAGDKVKSAVSAATLEFSKFISTKENNCAYDNDSLKSLLTK	Em,NO	67±2 mV vs. SHE
NP4-D30A: site-directed mutant of NP4, D30 replaced by Ala (protein, UniProt Q94734 22-205, looked up, variant D30A) Nitrophorin-4: ACTKNAIAQTGFNKDKYFNGDVWYVTDYLALEPDDVPKRYCAALAAGTASGKLKEALYHYDPKTQDTFYDVSELQVESLGKYTANFKKVDKNGNVKVAVTAGNYYTFTVMYADDSSALIHTCLHKGNKDLGDLYAVLNRNKDAAAGDKVKSAVSAATLEFSKFISTKENNCAYDNDSLKSLLTK	Em,NO	163±4 mV vs. SHE
NP4: recombinant wild-type nitrophorin 4 of Rhodnius prolixus, native A1 as first residue (protein, UniProt Q94734 22-205, looked up) Nitrophorin-4: ACTKNAIAQTGFNKDKYFNGDVWYVTDYLDLEPDDVPKRYCAALAAGTASGKLKEALYHYDPKTQDTFYDVSELQVESLGKYTANFKKVDKNGNVKVAVTAGNYYTFTVMYADDSSALIHTCLHKGNKDLGDLYAVLNRNKDAAAGDKVKSAVSAATLEFSKFISTKENNCAYDNDSLKSLLTK	Em,NO	44±2 mV vs. SHE
